# target.or.test.system: human IL-12 receptor (IL-12Rβ1 and IL-12Rβ2) on HEK-Blue IL-12 cells (human, UniProt P42701 24-662; Q99665 24-862)
# Sequence (Q99665 24-862, chain 2 of 2, other chains not shown): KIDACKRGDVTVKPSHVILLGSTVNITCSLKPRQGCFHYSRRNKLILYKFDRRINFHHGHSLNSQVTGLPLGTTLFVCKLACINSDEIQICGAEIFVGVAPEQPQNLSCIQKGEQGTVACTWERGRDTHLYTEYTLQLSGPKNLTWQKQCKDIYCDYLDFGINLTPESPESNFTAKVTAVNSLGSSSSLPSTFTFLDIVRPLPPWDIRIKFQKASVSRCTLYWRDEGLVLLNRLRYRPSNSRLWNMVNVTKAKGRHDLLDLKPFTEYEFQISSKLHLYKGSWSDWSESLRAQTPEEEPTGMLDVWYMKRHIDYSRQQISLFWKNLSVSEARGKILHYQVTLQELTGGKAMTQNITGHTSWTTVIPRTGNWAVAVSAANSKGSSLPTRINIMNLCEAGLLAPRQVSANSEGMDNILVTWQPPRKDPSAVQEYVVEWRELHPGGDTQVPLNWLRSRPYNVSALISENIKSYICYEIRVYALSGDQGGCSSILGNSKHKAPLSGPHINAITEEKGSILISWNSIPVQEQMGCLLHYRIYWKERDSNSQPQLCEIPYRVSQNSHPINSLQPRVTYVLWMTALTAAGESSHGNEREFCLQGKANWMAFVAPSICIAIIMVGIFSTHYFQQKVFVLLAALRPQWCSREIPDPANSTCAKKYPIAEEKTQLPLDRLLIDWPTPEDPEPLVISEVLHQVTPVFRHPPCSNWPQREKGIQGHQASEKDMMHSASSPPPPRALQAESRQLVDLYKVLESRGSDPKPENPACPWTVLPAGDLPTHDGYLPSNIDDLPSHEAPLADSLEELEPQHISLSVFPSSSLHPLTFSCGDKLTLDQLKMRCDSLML
# experimental.details: cell-based or functional assay
metric: Max Absorbance
One number for each entry.

{"binder": "DGL506 (bispecific antibody, V domains shown) V domain 1: EVQLVESGGGLVQAGGSLRLSCAASGLTFRNYAMAWFRQAPGKEREFVAGITWGGGLTHYVDSVKGRFTISRDNGKNTVYLQMNSLKSEDTAVYYCAGKTQGSTWYHLTPDGYDYWGQGTQVTVEP V domain 2: QVQLVESGGGLVQAGGSLKLSCAASGGTFSSYAMGWFRQAPGKEREFVAAIMRSGGTTVYVNSVKGRFTVSRDNAKNTVYLQMNSLKPEDAAVYYCAAGRPVSRTSYYTYTYPHDYDYWGQGTQVSVEP", "value.reported": 0.31}
{"binder": "DGL572 (bispecific antibody, V domains shown, 233B1 x 93B2) V domain 1: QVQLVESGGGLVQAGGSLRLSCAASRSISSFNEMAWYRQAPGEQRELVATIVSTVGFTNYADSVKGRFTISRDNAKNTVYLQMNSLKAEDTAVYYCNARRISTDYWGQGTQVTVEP V domain 2: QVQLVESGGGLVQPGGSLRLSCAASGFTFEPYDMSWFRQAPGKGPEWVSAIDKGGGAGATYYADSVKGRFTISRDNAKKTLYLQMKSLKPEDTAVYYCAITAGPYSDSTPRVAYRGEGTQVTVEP", "value.reported": 1.05}
{"binder": "DGL514 (bispecific antibody, V domains shown, 97B1 x 67B2) V domain 1: QVQLVESGGGLAQAGGSLRLSCAASGRTFSNDDMAWFRQAPGKEREFVAHIDRNAASTNYADSVKGRFTISRDNAKNTVYLQMTRLKPEDTAVYYCAADPDHFGTTWYQQYTYWGPGTQVTVEP V domain 2: QVQLVESGGGLVQPGGSLRLSCAASGFTFSNYAMSWIRQGPERGFEWVSRINSGGGTTSYADSVKGRFTISRDNAKNTLYLQMNSLKPEDTAVYYCAKHSHPDYSSNYYRPGQGTQVTVEP", "value.reported": 0.85}
{"binder": "DGL605 (bispecific antibody, V domains shown, 238B1 x 93B2) V domain 1: QLQLVESGGGLVQPGGSLRLSCAASGFTFSSYGMSWVRQAPGKGLEWVSYISAGGGTTTYVDFVKGRFTISRDNAKNMLYLQMNSLKPEDTAVYYCVHAADGSRGQGTQVTVEP V domain 2: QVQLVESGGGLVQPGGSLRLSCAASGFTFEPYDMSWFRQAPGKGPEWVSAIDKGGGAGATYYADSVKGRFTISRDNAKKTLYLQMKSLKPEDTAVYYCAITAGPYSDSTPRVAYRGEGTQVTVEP", "value.reported": 0.74}

Read the next record carefully.
Problem: Reported Max Absorbance, binder DGL495 (bispecific antibody, V domains shown) V domain 1: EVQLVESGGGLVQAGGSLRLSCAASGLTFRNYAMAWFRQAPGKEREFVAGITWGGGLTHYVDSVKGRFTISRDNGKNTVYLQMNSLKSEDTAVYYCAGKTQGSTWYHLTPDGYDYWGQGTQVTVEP V domain 2: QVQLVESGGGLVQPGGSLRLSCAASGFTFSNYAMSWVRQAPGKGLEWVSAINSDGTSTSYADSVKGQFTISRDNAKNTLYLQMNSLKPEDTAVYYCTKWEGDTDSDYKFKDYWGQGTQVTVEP : ____
Result: 0.96

Numbers sourced from patent US20250019450A1.
